What EC50 was measured for each of the following?
tested_target: T1, human MICA004 on cells (human)
T1 construct: whole, on cells; also called CHO-MICA004; C1R-MICA004
T1 sequence (Q29983 whole entry): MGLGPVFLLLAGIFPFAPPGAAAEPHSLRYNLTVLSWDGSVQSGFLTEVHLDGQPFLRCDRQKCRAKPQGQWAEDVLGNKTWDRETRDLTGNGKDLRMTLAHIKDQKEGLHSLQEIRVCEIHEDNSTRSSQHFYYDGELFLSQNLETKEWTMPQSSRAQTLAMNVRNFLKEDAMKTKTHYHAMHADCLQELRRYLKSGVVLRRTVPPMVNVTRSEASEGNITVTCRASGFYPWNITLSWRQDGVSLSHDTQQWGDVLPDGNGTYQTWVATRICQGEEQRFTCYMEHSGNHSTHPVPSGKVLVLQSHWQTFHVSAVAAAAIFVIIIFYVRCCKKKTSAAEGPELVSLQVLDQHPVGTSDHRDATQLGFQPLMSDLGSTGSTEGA
procedure_text: flow cytometry, CHO-MICA004 cells
Respond numerically; units are µg/mL and should not be typed.

Exercise: // query EC50 value for entry #34 (antibody, human IgG1, V domains shown, also called PL111H04; Hit ID 34) VH: QVQLKQSGPELVKPGASVKVSCKASGYAFTKYNIYWVKQSHGKSLEWIGYIDPYNGGTVQNQKFKGKATLTVDKSSSTAYMHLNSLTSEDSAVYYCATTDGYSLFTYWGQGTLVTVSS VL: DIVLTQSPTTMAASPGEKITITCSASSSISSNYLHWYQQKPGFSPKLLIYRTSNLASGVPARFSGSGSGTSYSLTIGTMEAEDVATYYCQQGSSIPFTFGSGTKLEIK
Solution: 0.202

Exercise: // repeat for 13A9 (antibody, human IgG1, kappa, V domains shown) VH: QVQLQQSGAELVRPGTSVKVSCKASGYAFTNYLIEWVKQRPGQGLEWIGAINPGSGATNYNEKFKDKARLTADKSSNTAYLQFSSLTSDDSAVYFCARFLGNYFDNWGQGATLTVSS VL: DIQMTQSPASLSASVGETVTITCRASGNIHSYLAWYQQKQGKSPQLLVYYAETLADGVPSRFSGRGSGTQYSLKINSLQPEDFGSYFCQQFWTTPYTFGGGTKVEIKR and report
Solution: 7.25

Exercise: // repeat for #40 (antibody, human IgG1, V domains shown, also called PL113C03; Hit ID 40) VH: QVQLQQSGPELVKPGASVKVSCKASGYAFTKYNIYWVKQSHGKSLEWIGYIDPYNGGTVYNQKFKGKATLTVDKSSSTAYMHLNSLTSEDSAVYYCATTDGYSLFTYWGQGTLVTVSA VL: DIQMTQTTSSLSASLGDRVTITCSAGQGINNYLNWYQQKPDGTVKLLIFYTSSLQSGVPSRFSGSGSGADYSLTISNLEPEDIATYYCQQYSKLPLTFGAGTKLELK and report
Solution: 0.306

Exercise: // repeat for #36 (antibody, human IgG1, V domains shown, also called PL116H11; Hit ID 36) VH: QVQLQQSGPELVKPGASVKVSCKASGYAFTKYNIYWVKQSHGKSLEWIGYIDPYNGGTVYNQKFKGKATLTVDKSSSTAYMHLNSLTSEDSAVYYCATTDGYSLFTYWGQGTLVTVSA VL: DIQMTQTTSSLSASLGDRVTISCRASQDISNYLNWYQQKPDGTVKLLIYYTSRLHSGVPSRFSGSGSGTDYSLTISNLEQEDIATYFCQQGNTLPFTFGSGTKLEIK and report
Solution: 0.248

Exercise: // repeat for #38 (antibody, human IgG1, V domains shown, also called PL114H02; Hit ID 38) VH: QVQLQQSGAELARPGASVKLSCKASGYTFSIHWMQWVKQRPGQGLEWIGAIYPGNGDTKYTQKFKGKATLTADKSSSTAYMQLSNLASEDSAVYYCATLYGNYEAYWGQGTLVTVSA VL: DIVLTQSPASLSASVGETVTITCGASENIYGALNWYQRKQGKSPQLLIYGTTNLADGMSSRFSGSGSGRQYSLKISSLHPDDVATYYCQNVLTTPPWTFGGGTKLEIK and report
Solution: 3.93
